This collection of values is drawn from PubChem BioAssay (NCI).

Collected TGI values appear next to each entry.
Test system: SR leukemia
protocol.text: NCI tumour cell line growth inhibition, 48 h
Where a SMILES comes first, the peptide text is derived from it. [ ]: non-standard residue; d: D form. The star is where a group is joined. NMeAc5c = CNC1(C(=O)O)CCCC1; Boc = CC(C)(C)OC(=O)*; OBn = c1ccc(CO*)cc1

Completed entries (count: 8):
compound: Clc1ccccc1C(SCc1ccccc1)SCc1ccccc1
value.type: TGI
recorded.value: > 100 µM
--
compound: CN1CCc2cc(N)cc3c2C1Cc1ccc(O)c(O)c1-3 (stereo unspecified)
value.type: TGI
recorded.value: > 100 µM
--
compound: Fc1ccc(NC(=S)SCc2ccc3c(c2)OCO3)cc1F
value.type: TGI
recorded.value: 43.9 µM
--
compound: O=C1C=CC(=O)c2c1ccc1c3ccccc3n(CCCCCCCCCCCCn3c4ccccc4c4ccc5c(c43)C(=O)C=CC5=O)c21
value.type: TGI
recorded.value: > 100 µM
--
compound: CCCN(C(=O)c1ccccc1)C(C#N)c1ccc(C(C#N)N(CCC)C(=O)c2ccccc2)cc1 (stereo unspecified)
value.type: TGI
recorded.value: > 100 µM
--
compound: COc1cc2c(c(OC)c1OC)-c1ccc(NNC(N)=S)c(=O)cc1[C@@H](NC(C)=O)CC2
value.type: TGI
recorded.value: > 100 µM
--
compound: NC(=O)NO.O.O.O.O.O.O.O.O.O.O.O.[Ge].[Ge].[Ge].[Ge].[Ge].[O]=[Ge].[O]=[Ge].[O]=[Ge].[O]=[Ge].[O]=[Ge][OH]
value.type: TGI
recorded.value: > 100 µM
--
compound: NC(N)=N/N=C/c1c(-c2ccc(N)cc2)nc2sccn12
value.type: TGI
recorded.value: 89.3 µM

Recorded TGI of CC1(C(=O)O)CCC[C@@]2(C)C1CC[C@@]1(C)c3cocc3CCC21 (stereo partly specified) , please.
> 100 µM

For CNC(=S)OCCC(C)CCCC(C)C (stereo unspecified) then?
31.9 µM

Try "COC(=O)/C(C#N)=C1\NC(=O)c2ccccc21" next.
> 100 µM

And CN(C(=O)C(Cc1ccccc1)NC(=O)OC(C)(C)C)C1(C(=O)NC(Cc2ccccc2)C(=O)OCc2ccccc2)CCCC1 (stereo not drawn) (Boc-Phe-[NMeAc5c]-Phe-OBn; configuration not given here) ?
69.1 µM

And the next one, O=C1CSC(c2ccc(Cl)cc2)N1c1ccc(Oc2ccc(Cl)cc2)c(Cl)c1 (stereo unspecified) ?
41 µM

Continue with CC1(C)OC(=O)N(c2ccccc2)C12C=Cc1cc([N+](=O)[O-])cc([N+](=O)[O-])c1O2 (stereo unspecified)
> 100 µM

Repeat for the following compound: "CCCCCCCCCCCC(=O)OCCOCCOCCOCCOCCOCc1ccccc1"
> 100 µM

What about this compound? "CCN(CC)CCSc1c2ccccc2nc2cc(NCC(=O)Nc3ccccc3-c3ccccc3NC(=O)CNc3ccc4c(SCCN(CC)CC)c5ccccc5nc4c3)ccc12"
> 100 µM

###

System: HCT-15 colon
protocol.text: NCI tumour cell line growth inhibition, 48 h; in the data active = GI50 below about 0.43 µM; inactive = the rest
*1 amine or outer side, *2 acyl side, *3 side chain or, on linkers, in order; H or OH if unused. Where a SMILES comes first, the peptide text is derived from it. Bridges are numbered along the chain shown (N, C = ends). [ ]: non-standard residue; d: D form. The star is where a group is joined. Phe(3,5-F2) = N[C@@H](Cc1cc(F)cc(F)c1)C(=O)O; Pro(4R-Me) = C[C@H]1CN[C@H](C(=O)O)C1; aThr = C[C@H](O)[C@H](N)C(=O)O; Pip = O=C(O)[C@@H]1CCCCN1; X10 = Fc1cc(C2CC2)ccc1N*; CO = O=C([*:1])[*:2]
Choose one outcome from this list and give only that: t = active, f = inactive

Some solved cases for reference:
compound: COc1cc2c(c(OC)c1OC)-c1ccc(NNC(N)=S)c(=O)cc1[C@@H](NC(C)=O)CC2
study.system: HCT-15 colon
category: f
//
compound: CN(C)c1ccc(/C=C\C2=[N+](C)c3ccccc3C2(C)C)cc1
study.system: HCT-15 colon
category: f
//
compound: COC(=O)/C=C1\S/C(=N\NC(=O)c2cc3ccc2/C=C\c2ccc(cc2)/C=C\3)N(c2ccccc2)C1=O
study.system: HCT-15 colon
category: f
//
compound: Nc1ccccc1C#C/C=C\C#Cc1ccccc1OC(F)(F)F
study.system: HCT-15 colon
category: f
//
compound: OC1CSSC1Cn1cnc2c(Nc3ccc(OCc4cccc(F)c4)c(Cl)c3)ncnc21 (stereo not drawn)
study.system: HCT-15 colon
category: f
//
compound: Cc1cc(-c2nc(C(=O)Nc3cc4oc(N5CCOCC5)nc4nc3N3CC[C@@H](O)C3)co2)ccn1
study.system: HCT-15 colon
category: f

In this assay, the call recorded for "C=CCO[C@H]1CO[C@H]2[C@@H]1OC[C@@H]2Oc1ccc(Nc2ccnc(Nc3ccc(O[C@H]4CO[C@H]5[C@@H]4OC[C@@H]5OCC=C)c(Cl)c3)n2)cc1Cl" was what?
f

How about this compound: "Cc1nc2sccn2c1-c1csc(Nc2ccccc2Cl)n1"
f

Another compound: C[C@@H]1C[C@H]2C(=O)O[C@@H](C)[C@H](NC(=O)[C@H](Cc3cc(F)cc(F)c3)NC(=O)Nc3ccc(C4CC4)cc3F)C(=O)N3CCC[C@H]3C(=O)N3CCCC[C@H]3C(=O)N[C@@H](C)C(=O)N2C1 ({X10-CO}-[Phe(3,5-F2)][aThr]P[Pip]A[Pro(4R-Me)]; ester 2-C)
t

Same for COC1/C=C/OC2(C)Oc3c(C)c(O)c4c(O)c(c(/C=N/Nc5ccc([N+](=O)[O-])cc5[N+](=O)[O-])c(O)c4c3C2=O)NC(=O)C(C)=C/C=C/C(C)C(O)C(C)C(O)C(C)C(OC(C)=O)C1C (stereo not drawn)
f

###

Listing of entries alongside the reported TGI.
System: SK-MEL-5 melanoma
protocol.text: NCI tumour cell line growth inhibition, 48 h
*1 amine or outer side, *2 acyl side, *3 side chain or, on linkers, in order; H or OH if unused. Where a SMILES comes first, the peptide text is derived from it. Bridges are numbered along the chain shown (N, C = ends). [ ]: non-standard residue; d: D form. The star is where a group is joined. Phe(3,5-F2) = N[C@@H](Cc1cc(F)cc(F)c1)C(=O)O; Pro(4R-Me) = C[C@H]1CN[C@H](C(=O)O)C1; aThr = C[C@H](O)[C@H](N)C(=O)O; Pip = O=C(O)[C@@H]1CCCCN1; X10 = Fc1cc(C2CC2)ccc1N*; CO = O=C([*:1])[*:2]
Note: unit µM is implicit; provide only the numeric part.

Example results:
compound: OCCN(CCO)c1ncnc2c1ncn2Cc1ccc(CCl)cc1
value.type: TGI
recorded.value: 23.3

compound: COC(=O)C1SC(SC)=NC12c1ccccc1Nc1ccccc12 (configuration not stated)
value.type: TGI
recorded.value: 31

compound: C[C@@H]1C[C@H]2C(=O)O[C@@H](C)[C@H](NC(=O)[C@H](Cc3cc(F)cc(F)c3)NC(=O)Nc3ccc(C4CC4)cc3F)C(=O)N3CCC[C@H]3C(=O)N3CCCC[C@H]3C(=O)N[C@@H](C)C(=O)N2C1 ({X10-CO}-[Phe(3,5-F2)][aThr]P[Pip]A[Pro(4R-Me)]; ester 2-C)
value.type: TGI
recorded.value: 1.24

# next compound below
Query: TGI; subject: OC1CSSC1Cn1cnc2c(Nc3ccc(OCc4cccc(F)c4)c(Cl)c3)ncnc21 (configuration not stated)
2.88

###

System: K-562 leukemia
protocol.text: NCI tumour cell line growth inhibition, 48 h
Reported TGI values for a set of compounds

Below are worked cases with known answers.
compound: CC(C)(C)OC(=O)N[C@H]1CCN(C2CCCCC2)C1=O
study.system: K-562 leukemia
TGI: > 100 µM
--
compound: NS(=O)(=O)OC[C@@H]1C[C@@H](n2ccc3c(NC4CCc5ccccc54)ncnc32)C[C@@H]1O (stereo not given in full)
study.system: K-562 leukemia
TGI: 32.3 µM
--
compound: CCN1/C(=C\c2cc[n+](CC)c3ccccc23)C=Cc2ccccc21
study.system: K-562 leukemia
TGI: 12.8 µM
--
compound: O=C1/C(=C/c2ccccc2)N=C2Sc3c(nc[nH]c3=O)N12
study.system: K-562 leukemia
TGI: 83.5 µM
--
compound: O=[N+]([O-])c1cccc(-c2csc(NNC3=NC/C(=C/c4ccc5c(c4)OCO5)S3)n2)c1
study.system: K-562 leukemia
TGI: > 100 µM
--
compound: COc1cc(Br)cc2cc(-c3cn4ccsc4n3)c(=O)oc12
study.system: K-562 leukemia
TGI: > 100 µM

Using the record for "COC(=O)/C=C1\S/C(=N\NC(=O)c2cc3ccc2/C=C\c2ccc(cc2)/C=C\3)N(c2ccccc2)C1=O" , report its TGI.
> 100 µM

Field entry: "O=C(CCc1nc(=S)[nH][nH]1)Nc1cc(Cl)c(Cl)cc1Cl"
> 100 µM

"COc1cc2c(c(OC)c1OC)C(=O)[C@@H]1[C@H]2N1C(N)=O" ?
> 100 µM

Same question for CCC(C(=O)O)c1ccc(OC)cc1 (stereo not given) please.
> 100 µM
